# System: MS2 coat protein
# assay_explanation: apparent KD of MS2 coat protein; designed switch direction (-1 OFF switch, 1 ON switch): -1; higher = weaker reporter binding
# condition_parameters: input ligand: none
Below, each entry is listed with its recorded apparent KD of MS2 coat protein.
result_type: apparent KD of MS2 coat protein

chain_sequence	measured_result
AGGUCACAUGAGGAUCACCCAUGUCAGGAUAUCUACAUUGAAGCUUCGGCUUCAAUGUAGAGAAGGGACAAUUA [E1/6-B1] (Eterna round: R97, puzzle: Exclusion 1)	0.0757 µM
CUGAACCCGGUAGGAUAUAUUGUGGGCAAGCAUGGAACGACAUGAGGAUCACCCAUGUAAUUUAGGUAGAAGGGCCAAGAGAUU [Excl-NG2-LRO10] (Eterna round: R96, puzzle: Exclusion NG 2)	0.0737 µM
GGAUAAAGUCGAGGAUAUACGCACCACUAACGAGUAGAAGGCGAACAUGAGGAUCACCCAUGUGAGUUCUCAAUAAGAAACACG [Prohibition 69 - Jieux - Exclusion NG 1] (Eterna round: R96, puzzle: Exclusion NG 1)	0.0371 µM
GUAGAGUCAGGAUAUACGAGAUCGAAAGAUCGGCGGUCCUUACAUGAGGAUCACCCAUGUAGAAGGGACUCUAC [Omei mod 6 to Eli's favorate candidate (ch.parushev)] (Eterna round: R97, puzzle: Exclusion 2)	0.0713 µM

---

# Test system: K4 kissing-loop RNA reporter;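 note: bound reporter read as fluorescence of individual clusters on recovered sequencing chips by microscopy, with normalized cluster intensities fitted with a binding model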
# assay_explanation: apparent KD of K4 kissing-loop reporter; higher = weaker reporter binding
# condition_parameters: Eterna round: R107; input ligand: theophylline 20 uM
Everything with apparent KD of K4 kissing-loop reporter lower than 400 nM is rule not met; everything else, including exactly 400 nM, is rule met.

chain_sequence	discrete_label
CGCGCGCGCGCGCGCGCGCGCGCGCGAAGUGAGGAUAUUUAGGGAGAAAGAAGGCACUAUAAAAUAUAGUGAUGUUAUAUAAGGG [SSFMNA.B]	rule not met
UGACUGGAUGGAAGGAGCGCUAAACUCCUAGUGAUGUUAGGGACAUGAGGCAUAGCCUUGAAGCAGGUAGGUCGCCAUCUAGUCU [FiskerMod 29 - Jieux - Same State - Arginine B]	rule not met
UACUAUAGUGAUGUUAUAGAUAAACCAGAUACCAGUGUAACAUAACACCCUUGGCAGCUGAUGAGGGAAGAUAUCAAAAGAUAUC [AstroSTH-A#9newdesignED4.70]	rule not met
GGUAGCAUGGCGGCCGCCACUUAGACUGGAUCGGAAACGAUCCAGUGAAAACGAGUGAUGUUCGUAAGGACCGGGCCAUGCUACC	rule not met
AGAAACUUGUAUACAGGGCAUGCCAGAGAUACCAGUCAAAUGGAAGGCCCUUGGCAGCUCAGGCGAGUGAUGUUCGCAGGCUGAC [Exclusion Theophylline A GF 20]	rule not met
UGCAGUGAUGUUGCGAGUGGCAGAUACGAAGGAGCGUGGUGAGACACAGGUAGGUCGCGUAUCGAAAUUGCUGUCACUAAAAUGC [#8]	rule met
UCGCAAGAAUCACUGUGGAGGACCUUGGCCAAGGAUAUCAAAGGAUUGAGAAGGUGGCGCCAAGUGAUGUUUGGAUGCCGGGCAG [theeternabot_exclusion_KL_FMN_A_36]	rule not met
UUUUUUUACUGAAGGAGCGGCAAUUGAUACGUAGAUAUAGUGAUGUUAUAUAAGAUAGAGAGCCAGGUAGGUCGCAGAUUUUUUC [ExArgB.X]	rule not met
AUUGCGGCCGUUCUAUCACCAGGCGGAGAUACCAGAUGCCAGCAGAUCCCUUGGCAGCUCUGCACGAGAUCCAGUGAUGUUGGGU [theeternabot_exclusion_KL_Theo_A_9]	rule not met
CGGGAUGUUAAAGGAUAUAGCAGGUGAUACAAGAAAGUGAGUGAUGUUUAUGUAGAUGAUGAUAUGUUAGAAGGUUAACAAAACG [abcdefghijkl]	rule met
GGGUCUGCCGGAAGGAGCGCACUAUGGAGUGAUGUUCCAUGACCGCACAGCUUGCGGUCAGUGCAGGUAGGUCGCCGGUAGCGUU [Inesor]	rule not met
GGAAAUCUUGCCGAUACCAGAUCGCGCGGCCAUUGCUAGUGAUGUUGGCAAUAAGUACUCAUCCCUUGGCAGCGGUAAGGCAGUG [theeternabot_sameState_KL_Theo_B_23]	rule not met
CAGCGGAGUGAUGUUCUGCUUACUGCGGAUACCAGCUUCGCCAGAGGCCCUUGGCAGCCGGGCGGCUCAGUGAUGUUGGGUUGCU [Same State Theophylline A GF 15]	rule met
AAACAUCACUGGGAGUGAUGUUCUCAGUGACGAGGACCGGUACGGCCGCCACUCGCGAGAGAUUUAGUCUAGUCUUGACUGCAUU [Excl Tryptophan A V12]	rule not met
CGAGCUUCCUGGGAUACCAGUCGGAGUCUCAGAGCUCGGAGUGAUGUUCUGGGAUGUUUCGGCCCUUGGCAGCUCUGGGACUCCU [#2 Exclusion - Theophylline B Attempt #20 (HarryS)]	rule met
UGUCAUUGGUCGGCCGCCACUAGGACCGGGUUUUGCCUAGUGAUGUUAGUAUGAACGGCCGCCACUAGGACCGGGACCGAUGACU [KL-SSTryp-B26 #DoubleAptamer]	rule not met
CGCCGCAAGGCGAGCGCUCCCACUCCGGAAGGAGCGCCCGGAAGGGCAGGUAGGUCGCCGGAGUGAUGUUCCGGUGGAGGGCUCG [#2 Exclusion - Arginine A Attempt #13 (Inspired by Omei)]	rule met
CACCCUAGUUCAGAUACCAGACUAGAGACAGUGAUGUUGUCACAUCCUAAAUUGGGUGUAGUCCCUUGGCAGCUGAGUAAUCUGC [Theo B/Ex/SS double]	rule met
CUUGAGACAUGAGUGAUGUUCAUGUCCGAAGGAGCGUGCGAAAGCACAGGUAGGUCGCGGACGUGAGUGAUGUUCAUGUGAGCGA [KL-XArg-A10 #analogue]	rule not met
AGCGCUGCCUGAGGAUAUAGAAACGAGUGAUGUUCGUGGAUUGAUACCAGUGAUGUUGGCCUAUUUCUAGAAGGCAGGCGAUCGU [Exclusion FMN B GF2]	rule not met
GGAUAGGACAGAGGAUAUGGUAGUGAUGUUACCAAACUGGUUACUCUUGUCAGAAAACUGGCAUCUCCAGAAGGCUGUCCUAUCG [KL-XFMN-B10]	rule not met
